Origin of the recorded values: PubChem BioAssay (NCI)

Test system: MOLT-4 leukemia
Test: NCI-60 one-dose screen, 48 h (100 = growth as untreated, 0 = no growth, -100 = all killed)
Details: 10 µM unless noted
This is part of a sample that, as a whole, favours compounds with a hit. Of some 83,000 tested, about 20% had one in any assay. Activity calls are given as the source filed them. The calls were made as follows: active = growth percent below 10; inactive = the rest.
In this section we review reported growth values for a set of compounds.
Property Name: growth

{"columns": ["Compound", "Result"],
 "data": [
  ["COc1ccccc1NC(=O)Nc1ccc(-c2nc3ccccc3o2)cc1", "75.1% (inactive)"],
  ["CCn1c(Sc2nnc(NC(=O)CCN3CCCC3)s2)nc2c1c(=O)n(C)c(=O)n2C", "108% (inactive)"],
  ["COc1ccc(/C=C2\\COc3ccc(O)cc3C2=O)c(OC)c1", "36.8% (inactive)"],
  ["O=C1Nc2ccc(Cl)cc2/C1=N/N=C/c1c[nH]c2ccccc12", "92.1% (inactive)"],
  ["COc1ccc(-c2cn(-c3cccc(C(=O)/C=C/c4cc(OC)c(OC)c(OC)c4)c3)c(=O)[nH]2)cc1", "3.77% (active)"],
  ["CCNCCNc1cc(-c2ccc(C(F)(F)F)cc2)c(C#N)c2nc3cc(Cl)c(Cl)cc3n12", "-56.8% (active)"],
  ["O=[N+]([O-])c1ccc(-c2cc3c(Nc4ccc(OCc5cccc(Cl)c5)c(Cl)c4)ncnc3s2)cc1", "47.5% (inactive)"],
  ["C=C1C(=O)O[C@H]2[C@H]1CC/C(COC(=O)NCc1ccc(Cn3c(=O)sn(CCCCl)c3=O)cc1)=C\\CC[C@@]1(C)O[C@@H]21", "-31.7% (active)"],
  ["Cc1ccc(-n2nnc(C3=NCCc4c3[nH]c3ccc(Cl)cc43)c2C)cc1", "49.6% (inactive)"],
  ["COc1cc(C2CC(=O)Nc3n[nH]c(-c4ccccc4)c32)cc(OC)c1OC (stereo not given)", "54% (inactive)"],
  ["COc1cc(-c2ccc(-c3ccc(C(=N)N)nc3)s2)cc(OC)c1OC", "23.8% (inactive)"],
  ["COc1cc(-c2ccc(N=Nc3c(O)c(C(=O)Nc4ccccc4OC)cc4ccccc34)c(OC)c2)ccc1N=Nc1c(O)c(C(=O)Nc2ccccc2OC)cc2ccccc12", "93.8% (inactive)"],
  ["O=C(NCCOCCOCCOCCNC(=O)c1cc2c(o1)C(=O)c1ccccc1C2=O)NC12CC3CC(CC(C3)C1)C2", "12.1% (inactive)"],
  ["Cc1nc2ccc(C(=O)NCc3cc(C(=O)O)c(C)o3)cc2nc1C", "106% (inactive)"],
  ["CNC(=O)c1cc(Oc2ccc3nc(NC(=O)Nc4cc(C(F)(F)F)cc(C(F)(F)F)c4)sc3c2)ccn1", "0.825% (active)"],
  ["CC[C@@H](C[C@H](CCO)c1ccccc1)c1cc2ccccc2o1", "79.9% (inactive)"],
  ["c1ccc([P+](CCCc2n(Cc3ccc4ccccc4c3)c3ccccc3[n+]2Cc2ccc3ccccc3c2)(c2ccccc2)c2ccccc2)cc1", "57.6% (inactive)"],
  ["Fc1ccc(Nc2nc3nonc3nc2Nc2ccc(F)cc2)cc1", "-8.01% (active)"],
  ["C/C(=N\\NC(N)=S)c1nc2ccc(Cl)cc2[nH]1", "30.4% (inactive)"],
  ["COc1ccc(-c2nnc(SCC(=O)NC3=NN=C(c4ccccc4)CS3)o2)cc1", "83.9% (inactive)"],
  ["CO/C(=C1/NC(=O)C(Cc2ccc(O)c(Br)c2)N(C)C(=O)C(C)NC(=O)CCC/C=C(\\C)CCC(C)OC1=O)c1ccccc1 (stereo not given)", "-12.2% (active)"],
  ["Nc1nc(N)c(-c2ccc(Cl)cc2)c(/C=C/c2ccc([N+](=O)[O-])cc2)n1", "27.6% (inactive)"],
  ["O=C1C2=C(CCN(Cc3ccccc3)C2)N2CCN=C2N1Cc1ccc(F)cc1F", "74.1% (inactive)"],
  ["Cc1ccc(NSc2ccccc2[N+](=O)[O-])cc1", "29.5% (inactive)"],
  ["Clc1ccc(-c2nnc(Cn3ccnc3)o2)cc1", "96.5% (inactive)"]
]}

----------
Tested on: K-562 leukemia
Assay: NCI-60 one-dose screen, 48 h (100 = growth as untreated, 0 = no growth, -100 = all killed)
Conditions: 10 µM unless noted
About 83,000 compounds went through this panel and 20% of them were active in at least one assay; those are over-represented in the sample as a whole. Activity calls are given as the source filed them. Rule for the calls: active = growth percent below 10; inactive = the rest.
In this section we review reported growth values for a set of molecules.
Property Name: growth

{"columns": ["Molecule", "Result"],
 "data": [
  ["O=C1CC(c2ccc3c(c2)OCO3)Nc2cc3c(cc21)OCO3 (stereo not drawn)", "10.2% (inactive)"],
  ["COc1ccc(-c2c(N)n[nH]c2-c2ccccc2O)cc1OC", "87.2% (inactive)"],
  ["O=C1CSC(c2ccccc2)N1c1ccccc1 (stereo not drawn)", "107% (inactive)"],
  ["CC(C)N(CCOC(=O)Nc1ccccc1Cl)C(C)C", "104% (inactive)"],
  ["O=C(/C=C/C12c3ccccc3C(c3ccccc31)C1C(=O)N(c3ccccc3)C(=O)C12)c1ccc(Cl)cc1 (stereo not drawn)", "18.2% (inactive)"],
  ["NC(=O)c1c(NC(=O)c2ccc(C(F)(F)F)cc2Cl)sc2c1CCC(=O)C2", "-11.7% (active)"],
  ["O=C1C=CC(=Nc2cc(Br)c(O)c(Br)c2)C=C1", "12.6% (inactive)"],
  ["O=C1NCC(=O)N(Cc2ccco2)[C@H]1Cc1ccccc1", "107% (inactive)"],
  ["Fc1ccc(Nc2nc3nonc3nc2Nc2ccc(F)cc2)cc1", "9% (active)"],
  ["CCOC(=O)C(O)C(O)(c1ccccc1)c1ccccc1 (stereo not drawn)", "98% (inactive)"],
  ["O=C1Nc2ccccc2/C1=N/N=C/c1ccc(OC2OC(CO)C(O)C(O)C2O)cc1 (stereo not drawn)", "98.3% (inactive)"],
  ["c1ccc2[nH]c(SSc3nc4ncncc4[nH]3)nc2c1", "17.1% (inactive)"],
  ["COc1ccc(C2CC(c3ccccc3)=NN2c2nc(C)c(C(C)=O)s2)cc1 (stereo not drawn)", "95% (inactive)"],
  ["COc1cc(C2C=C(c3cccc(NC(C)=O)c3)Nc3ncnn32)cc(OC)c1OC (stereo not drawn)", "23.6% (inactive)"],
  ["COc1ccccc1NC(=O)Nc1ccc(-c2nc3ccccc3o2)cc1", "83.4% (inactive)"],
  ["Cc1c(C(=O)O[C@H]2[C@@H]3[C@H](C)CC[C@H]3[C@]3(C)O[C@@]2(C2CCCCC2)C[C@H]3OC(=O)CO)ccc2ccccc12", "7.53% (active)"],
  ["N#Cc1c(Oc2ccc([N+](=O)[O-])cc2)nc2sc3cc(Cl)ccc3n2c1=N", "118% (inactive)"],
  ["N#C/C(=C\\c1ccc2c(c1)OCO2)n1nnc2ccccc21", "14.2% (inactive)"],
  ["C=C(CNCCc1ccc(O)cc1)[C@@H]1CC[C@]2(COC3CCCCO3)CC[C@]3(C)[C@H](CC[C@@H]4[C@@]5(C)CCC(N)C(C)(C)[C@@H]5CC[C@]43C)[C@@H]12 (stereo partly drawn)", "-73% (active)"],
  ["Cn1cc(-c2ccc3nc(-c4ccc(CC(=O)Nc5cc(C(C)(C)C)no5)cc4)cnc3c2)cn1", "4.38% [30 µM] (active)"],
  ["N=C(N)c1ccc(-c2ccc(-c3ccc(Cl)cc3Cl)o2)nc1", "1.13% (active)"],
  ["CC1(C)C(=O)/C(=C\\c2cccnc2)C[C@]2(C)[C@H]3CC=C4[C@@H]5C[C@@](C)(C(=O)O)CC[C@]5(C)CC[C@@]4(C)[C@]3(C)CC[C@@H]12", "80.7% (inactive)"],
  ["C=C(Cl)COC(=O)C(C)(C)O", "93.7% (inactive)"],
  ["COc1ccc(-c2cc(-c3cc(OC)ccc3OC)[nH]c(=O)c2C#N)cc1", "25.4% (inactive)"],
  ["CNC(=O)c1cc(Oc2ccc3nc(NC(=O)Nc4cc(C(F)(F)F)cc(C(F)(F)F)c4)sc3c2)ccn1", "-2.97% (active)"],
  ["N#Cc1cccc(-c2nc3ccccn3c2NCCN2CCOCC2)c1", "97.3% (inactive)"],
  ["O=C(NCc1cn(Cc2cccc(Oc3ccccc3)c2)nn1)c1cccnc1NCc1ccc(Cl)cc1", "11.8% (inactive)"],
  ["COc1ccc(Oc2nc(Nc3ccc(N4CCOCC4)nc3)ncc2NC(=O)c2cc(OC)cc(OC)c2)cc1", "49.8% (inactive)"]
]}

----------
Tested on: PC-3 prostate
Experiment: NCI-60 one-dose screen, 48 h (100 = growth as untreated, 0 = no growth, -100 = all killed)
Conditions: 10 µM unless noted
The panel holds about 83,000 compounds, 20% with a hit somewhere; the sample as a whole holds those more often.
Entry class follows growth: range A (below 60%), range B (60% to below 80%), range C (80% or more)

{"columns": ["Molecule", "Target Entity", "Answer Label"],
 "data": [
  ["COc1cc(C(=O)/C=C/c2c(-c3ccc(F)cc3)nc3ncccn23)cc(OC)c1OC", "PC-3 prostate", "range A"],
  ["N#Cc1cnn2c(-c3ccc(Cl)cc3)nc(NC3CC3)nc12", "PC-3 prostate", "range C"],
  ["CCCCN(CCCC)CCCn1c(=O)c2sc3ncccc3c2n2nnc(-c3ccccc3)c12", "PC-3 prostate", "range C"],
  ["CS(=O)(=O)c1ccc(-c2nc3cc(Cl)ccc3n2CC(=O)NO)cc1", "PC-3 prostate", "range C"],
  ["CC(=O)Nc1ccc(C(=O)/C=C/c2ccccc2)cc1", "PC-3 prostate", "range C"],
  ["COc1cc2c(cc1OC)-c1ccc3cc4c(cc3c1N(CCCN1CCCCC1)C2)OCO4", "PC-3 prostate", "range A"],
  ["COc1cc(/C=C2\\C=C(c3ccccc3)N(CCc3ccccc3)C2=O)cc(OC)c1OC", "PC-3 prostate", "range B"],
  ["C=CC(=O)Nc1cccc(C)c1Nc1cc(-c2cccnc2Cc2c(C)c(OC)cc(OC)c2C)ncn1", "PC-3 prostate", "range A"],
  ["CSc1ncc(C)c(Nc2ccc(Cl)cc2)n1", "PC-3 prostate", "range C"],
  ["COc1ccc(/C(C)=C(\\c2ccc(Cl)cc2)c2ccc(OCCN3CCCCC3)cc2)cc1F", "PC-3 prostate", "range A"],
  ["C=C1C(=O)O[C@H]2[C@H]1CC/C(COC(=O)/C=C\\C(=O)NCc1ccc(Cn3c(=O)sn(-c4ccc(OC)cc4)c3=O)cc1)=C\\CC[C@@]1(C)O[C@@H]21", "PC-3 prostate", "range A"],
  ["O=c1[nH]nc(-c2ccc(Cl)cc2)cc1Cc1ccccc1", "PC-3 prostate", "range C"],
  ["NC(=S)N/N=C/C(=O)O", "PC-3 prostate", "range B"],
  ["CCNCCNc1cc(-c2ccc(Cl)cc2)c(C#N)c2nc3ccccc3n12", "PC-3 prostate", "range A"],
  ["Cc1cc(N2CCCCC2)nc(N(CCNc2ccnc3cc(Cl)ccc23)Cc2ccccn2)n1", "PC-3 prostate", "range A"],
  ["Fc1ccc(Nc2nc(Nc3ccc(-c4nc5ccccc5[nH]4)cc3)c3cn[nH]c3n2)cc1", "PC-3 prostate", "range B"],
  ["N=C(N)c1ccc(-c2ccc(-c3ccc(Cl)cn3)s2)cc1", "PC-3 prostate", "range A"],
  ["C=C1C(=O)O[C@H]2[C@H]1CC/C(C(=O)NCCCCCCCCNC(=O)/C1=C/CC[C@@]3(C)O[C@H]3[C@H]3OC(=O)C(=C)[C@@H]3CC1)=C\\CC[C@@]1(C)O[C@@H]21", "PC-3 prostate", "range B"],
  ["CCCCOc1nc2ccc(Cl)cc2cc1/C=C/C(=O)/C=C1/CC(c2cc3cc(Cl)ccc3nc2OCCCC)Nc2ccccc2N1 (configuration not stated)", "PC-3 prostate", "range C"],
  ["CCN(CCO)CC(=O)c1cc(Cl)cc(Cl)c1Cl", "PC-3 prostate", "range C"]
]}
